target: UniProt P33261; experiment: CYP2C19 inhibition assay (substrate CEC); conditions: read-out: Pyridoxal 5′-phosphate IC50, 0.0169 to […] tested, listed as pyridoxal 5′-phosphate
Sequence (P33261 whole entry): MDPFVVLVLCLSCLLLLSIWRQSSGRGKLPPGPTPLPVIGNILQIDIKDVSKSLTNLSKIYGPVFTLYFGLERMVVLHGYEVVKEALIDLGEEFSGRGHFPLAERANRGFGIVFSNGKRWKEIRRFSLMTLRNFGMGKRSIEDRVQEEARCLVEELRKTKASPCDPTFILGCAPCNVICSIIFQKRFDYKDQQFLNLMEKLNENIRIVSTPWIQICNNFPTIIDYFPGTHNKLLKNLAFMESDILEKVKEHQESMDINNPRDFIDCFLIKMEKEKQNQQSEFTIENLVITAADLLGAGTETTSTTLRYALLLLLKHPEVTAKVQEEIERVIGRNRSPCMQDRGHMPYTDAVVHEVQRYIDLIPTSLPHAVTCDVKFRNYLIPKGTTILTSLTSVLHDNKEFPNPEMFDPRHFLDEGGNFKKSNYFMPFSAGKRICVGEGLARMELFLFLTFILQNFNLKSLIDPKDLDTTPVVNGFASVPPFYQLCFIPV
readout_label: IC50

>>> obs_value("Cc1ncc(COP(=O)(O)O)c(C=O)c1O [P5P, pyridoxal-5-phosphate]")
"~33 µM"
